Recorded values, source patent US8093207B2.

Assay: Bioavailability of vasopressin, calcitonin and insulin administered into the duodenum of anesthetized rats
Conditions: female, Wistar, rat, in vivo, 0.1 mg
Experimental: Female Wistar rats (250-275 g) (n=3 for each formulation) were anesthetized with ketamine and xylazine prior to the insertion of a cannula in the carotid artery. […] The concentration of calcitonin in plasma was determined by a competitive radioimmunoassay. The absolute bioavailability (i.e., relative to an intravenous dose of calcitonin) was calculated from the areas under the curve obtained from plots of the plasma concentration of calcitonin as a function of time. […]
assayEndpoint: bioavailability (%)
Numeric only. Scale: %

Challenge: // returns reported bioavailability for input NC(=O)CC[C@@H]1NC(=O)[C@H](Cc2ccccc2)NC(=O)[C@H](Cc2ccc(O)cc2)NC(=O)[C@@H](N)CSSC[C@@H](C(=O)N2CCC[C@H]2C(=O)N[C@@H](CCCN=C(N)N)C(=O)NCC(N)=O)NC(=O)[C@H](CC(N)=O)NC1=O [[Arg^8]-Vasopressin, [Arg^8]-vasopressin]
Response given: 8.1

----------
assay: Bioavailability of vasopressin, calcitonin and insulin administered into the duodenum of anesthetized rats; conditions: female, Wistar, rat, in vivo, 0.1 mg
assayEndpoint: Cmax (ng/mL)
Answer with a number only, understood to be in ng/mL.

Challenge: Entry NC(=O)CC[C@@H]1NC(=O)[C@H](Cc2ccccc2)NC(=O)[C@H](Cc2ccc(O)cc2)NC(=O)[C@@H](N)CSSC[C@@H](C(=O)N2CCC[C@H]2C(=O)N[C@@H](CCCN=C(N)N)C(=O)NCC(N)=O)NC(=O)[C@H](CC(N)=O)NC1=O [[Arg^8]-Vasopressin, [Arg^8]-vasopressin] has what Cmax?
Response given: 24.3
